Assay target: T1, RBP SH3-II+III (ITC construct) (D. melanogaster)
T1 chain: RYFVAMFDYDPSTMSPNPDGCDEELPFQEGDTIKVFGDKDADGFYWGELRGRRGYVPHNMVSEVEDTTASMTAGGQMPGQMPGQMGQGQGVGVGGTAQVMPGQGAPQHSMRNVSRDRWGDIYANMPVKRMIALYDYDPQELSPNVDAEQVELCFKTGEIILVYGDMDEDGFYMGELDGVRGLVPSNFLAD
Protocol details: ITC
Observation type: pKd
Answer as the number alone; pKd is minus log10 of concentration in mol/L.

Binder	Observation type	Test result
Ac-GRQLPQLPPKGT-NH2 (PxxP peptide named RIM2; May be a mammalian RIM2 motif or one of two motifs of Drosophila RIM; source: synthetic peptide (Leibniz Institute for Molecular Pharmacology)) [RIM2 peptide (GRQLPQLPPKGT)]	pKd	4.45
Ac-IGRRLPPTPSKPSTL-NH2 (also called Cacophony peptide; Cac-derived peptide; source: synthetic peptide (Leibniz Institute for Molecular Pharmacology)) [Cac peptide (1685-IGRRLPPTPSKPSTL-1699)]	pKd	4.50

Request: // pKd lookup, key: Ac-GRQLPQVPVRSG-NH2 (PxxP peptide named RIM1; May be a mammalian RIM1 motif or one of two motifs of Drosophila RIM; source: synthetic peptide (Leibniz Institute for Molecular Pharmacology)) [RIM1 peptide (GRQLPQVPVRSG)]
Response: 4.80

Request: // pKd lookup, key: Ac-TRRRRKLPEIPKNKK-NH2 (Aplip1, D. melanogaster, residues 149-163 with the first PxxP motif; also called Aplip1 peptide; Aplip1-PxxP1 peptide; source: synthetic peptide (Leibniz Institute for Molecular Pharmacology)) [Aplip-PxxP1 peptide (149-TRRRRKLPEIPKNKK-163)]
Response: 6.27

The measured values listed here are drawn from paper PMC4536467.
